- ASSAYED TARGET: T1, human FLT3 on the AML5 cell line (human, UniProt P36888 27-993)
- T1 sequence (looked up): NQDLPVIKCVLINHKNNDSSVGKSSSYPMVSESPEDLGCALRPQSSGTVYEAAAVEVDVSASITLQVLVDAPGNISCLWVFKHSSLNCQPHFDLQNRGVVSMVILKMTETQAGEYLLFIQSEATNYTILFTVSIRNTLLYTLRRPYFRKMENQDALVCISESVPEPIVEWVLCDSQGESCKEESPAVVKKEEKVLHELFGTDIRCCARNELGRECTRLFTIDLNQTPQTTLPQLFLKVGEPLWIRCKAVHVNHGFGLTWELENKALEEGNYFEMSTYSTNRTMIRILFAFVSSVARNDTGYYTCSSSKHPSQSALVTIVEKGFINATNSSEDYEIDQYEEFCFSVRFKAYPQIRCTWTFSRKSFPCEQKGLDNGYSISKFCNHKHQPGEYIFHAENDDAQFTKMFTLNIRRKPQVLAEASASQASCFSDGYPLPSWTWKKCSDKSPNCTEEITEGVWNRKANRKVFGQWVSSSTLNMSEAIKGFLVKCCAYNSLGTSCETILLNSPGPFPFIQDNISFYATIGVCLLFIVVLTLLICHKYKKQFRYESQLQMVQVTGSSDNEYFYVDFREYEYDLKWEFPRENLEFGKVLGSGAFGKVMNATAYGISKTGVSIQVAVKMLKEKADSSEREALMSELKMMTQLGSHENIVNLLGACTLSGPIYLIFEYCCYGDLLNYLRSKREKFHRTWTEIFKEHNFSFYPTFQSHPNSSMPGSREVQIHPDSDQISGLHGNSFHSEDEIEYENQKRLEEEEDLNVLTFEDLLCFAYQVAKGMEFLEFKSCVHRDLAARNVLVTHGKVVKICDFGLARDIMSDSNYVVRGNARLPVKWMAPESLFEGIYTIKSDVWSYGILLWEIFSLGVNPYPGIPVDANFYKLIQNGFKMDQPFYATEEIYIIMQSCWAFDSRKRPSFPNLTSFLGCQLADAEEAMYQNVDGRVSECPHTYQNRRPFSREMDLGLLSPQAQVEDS
- EXPERIMENTAL DETAILS: cell-based or functional assay
Overview of recorded EC50 (nM), AML5 proliferation for various binders
Please reply with the bare figure in nM and do not write the unit itself.

Study these solved cases before continuing.
BINDER	UNIT TAG	MEASURED
human FLT3-ligand (K84E) human hingeless IgG1 fusion protein (SEQ ID NO:23) (Fc fusion) TQDCSFQHSPISSDFAVKIRELSDYLLQDYPVTVASNLQDEELCGGLWRLVLAQRWMERLKTVAGSKMQGLLERVNTEIHFVTECAFQPPPSCLRFVQTNISRLLQETSEQLVALKPWITRQNFSRCLELQCQPDSSTLPPPWSPRPLEATAPTAPQGGPSVFLFPPKPKDTLMISRTPEVTCVVVDVSHEDPEVKFNWYVDGVEVHNAKTKPREEQYNSTYRVVSVLTVLHQDWLNGKEYKCKVSNKALPAPIEKTISKAKGQPREPQVYTLPPSREEMTKNQVSLTCLVKGFYPSDIAVEWESNGQPENNYKTTPPVLDSDGSFFLYSKLTVDKSRWQQGNVFSCSVMHEALHNHYTQKSLSLSPGK	nM	0.013
human FLT3-ligand human hingeless IgG1 fusion protein (SEQ ID NO:1) (Fc fusion, also called FLT3L ECD-hingeless hG1; hFLT3L ECD) TQDCSFQHSPISSDFAVKIRELSDYLLQDYPVTVASNLQDEELCGGLWRLVLAQRWMERLKTVAGSKMQGLLERVNTEIHFVTKCAFQPPPSCLRFVQTNISRLLQETSEQLVALKPWITRQNFSRCLELQCQPDSSTLPPPWSPRPLEATAPTAPQGGPSVFLFPPKPKDTLMISRTPEVTCVVVDVSHEDPEVKFNWYVDGVEVHNAKTKPREEQYNSTYRVVSVLTVLHQDWLNGKEYKCKVSNKALPAPIEKTISKAKGQPREPQVYTLPPSREEMTKNQVSLTCLVKGFYPSDIAVEWESNGQPENNYKTTPPVLDSDGSFFLYSKLTVDKSRWQQGNVFSCSVMHEALHNHYTQKSLSLSPGK	nM	0.034

Could you now consider this next binder?
Q. Item human FLT3-ligand (H8Y+K84E) human hingeless IgG1 fusion protein (SEQ ID NO:24) (Fc fusion) TQDCSFQYSPISSDFAVKIRELSDYLLQDYPVTVASNLQDEELCGGLWRLVLAQRWMERLKTVAGSKMQGLLERVNTEIHFVTECAFQPPPSCLRFVQTNISRLLQETSEQLVALKPWITRQNFSRCLELQCQPDSSTLPPPWSPRPLEATAPTAPQGGPSVFLFPPKPKDTLMISRTPEVTCVVVDVSHEDPEVKFNWYVDGVEVHNAKTKPREEQYNSTYRVVSVLTVLHQDWLNGKEYKCKVSNKALPAPIEKTISKAKGQPREPQVYTLPPSREEMTKNQVSLTCLVKGFYPSDIAVEWESNGQPENNYKTTPPVLDSDGSFFLYSKLTVDKSRWQQGNVFSCSVMHEALHNHYTQKSLSLSPGK : provide EC50 (nM), AML5 proliferation
A. 0.013
